testedOn: bovine recombinant ADAMTS5 (bovine)
assayMethodText: SPR off-rate, Biacore T100, ADAMTS5 immobilised, experiment 3
# koff >= 0.0002 s⁻¹ gives fulfilled, anything below gives not fulfilled

binder: Nanobody 2D07 (VHH) VHH: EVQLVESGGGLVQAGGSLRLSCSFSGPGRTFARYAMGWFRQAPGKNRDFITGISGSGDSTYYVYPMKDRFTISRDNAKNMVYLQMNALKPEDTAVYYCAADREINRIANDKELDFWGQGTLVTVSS
assignedLabel: fulfilled

binder: Nanobody 2F03 (VHH) VHH: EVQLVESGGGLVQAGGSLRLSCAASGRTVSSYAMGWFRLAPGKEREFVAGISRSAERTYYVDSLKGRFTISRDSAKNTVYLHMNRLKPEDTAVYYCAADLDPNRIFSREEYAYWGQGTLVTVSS
assignedLabel: not fulfilled

binder: Nanobody 3D01 (VHH) VHH: EVQLVESGGGLVQAGGSLRLSCAPSGFTFSPYYMGWFRQAPGKERDFVAAISRSRGTTYYLDSTEGRFTISRDNANDTVYLQMNSLNPEDTAVYYCAAGRSPGDPSRTYLYDYWGQGTLVTVSS
assignedLabel: fulfilled

binder: Nanobody 11B06 (VHH) VHH: EVQLVESGGGLVQAGGSLRLSCAASGLTFRRNAMGWFRQAPGKERELLAGINWSGGTTYYVDSVKGRFTISRDNAKNTVDLQMISPKPEDTAVYYCAADGDIGTLVNDENPRYWGQGTLVTVSS
assignedLabel: fulfilled

binder: Nanobody 2A12 (VHH) VHH: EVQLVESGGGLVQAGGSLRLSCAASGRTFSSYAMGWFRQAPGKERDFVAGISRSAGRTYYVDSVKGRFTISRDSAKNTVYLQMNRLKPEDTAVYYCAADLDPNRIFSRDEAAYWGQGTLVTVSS
assignedLabel: not fulfilled

binder: Nanobody 3B02 (VHH) VHH: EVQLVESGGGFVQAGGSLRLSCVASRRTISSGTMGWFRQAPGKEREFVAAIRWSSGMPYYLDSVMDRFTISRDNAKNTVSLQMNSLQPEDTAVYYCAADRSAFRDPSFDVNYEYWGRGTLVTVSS
assignedLabel: fulfilled

binder: Nanobody 9D03 (VHH) VHH: EVQLVESGGGLVQSGGSLRLSCAASGSAVSVNAMAWYRQAPGKQRDFVAGISRSAGRTYYTDSVKDRFTIARDSAKNTVYLQMNRLKPEDTAVYYCAADLDPNRIFSRDEAAYWGQGTLVTVSS
assignedLabel: fulfilled

Source of measurements: patent US20200317802A1
